- test target: T1, PDLoneECDHisCtag (human, UniProt Q9NZQ7 19-238)
- T1 construct: Expressed in HEK-293F cells; theoretical molecular weight 29 kDa; also called recombinant human PD-L1 ECD; human PD-L1 (BLI); not shown: C-terminal His-tag; C-tag
- T1 sequence (Q9NZQ7 19-238, form in doubt): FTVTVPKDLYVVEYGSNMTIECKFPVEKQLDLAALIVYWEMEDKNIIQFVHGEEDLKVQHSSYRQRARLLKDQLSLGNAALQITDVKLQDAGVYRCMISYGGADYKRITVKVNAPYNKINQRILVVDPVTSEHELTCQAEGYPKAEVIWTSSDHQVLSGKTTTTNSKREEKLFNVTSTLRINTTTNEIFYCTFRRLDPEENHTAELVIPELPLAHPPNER
- test summary: BLI cross-block, second antibody on PDLoneECDHisCtag held by immobilised MPDL; bold = blocking
observation type: association response of the second antibody

INPUT: Field request: association response of the second antibody | item: IgG1-321-FEAR (antibody, V domains shown) VH: EVQLVESGGGLVQPGGSLRLSCAASGFTFSSYWMSWVRQAPGKGLEWVANIKQDGNEKYYVDSVKGRFTISRDNAKNSLYVQMNSLRAEDTAVYYCARDLYYGSGTYPPFDYWGQGTLVTVSS VL: DIQMTQSPSTLSASVGDRVTITCRASQSISSWLAWYLQKPGKAPKLLIYKASSLESGVPSRFSGSGSGTEFTLTISSLQPDDFATYYCQQYHSSSYTFGQGTKLEIK
OUTPUT: 0 nm

INPUT: Field request: association response of the second antibody | item: IgG1-516-FEAR (antibody, V domains shown) VH: QVQLQESGPGLVKPSDTLSLTCAVSDYSISSNDWWGWIRQPPGKGLEWIGYIYYSGTGYYNPSLKSRVTISIDTSKNQFSLKLNSVTAVDTAVYYCARTRVGARRAFDYWGQGTLVTVSS VL: SYVLTQPPSVSVAPGQTARITCGGNNIGSKSVHWYQQKPGQAPVLVVYDDSDRPSGIPERFSGSNSGNTATLTISRVEAGDEADYYCQVWDSSSDHVVFGGGTKLTVL
OUTPUT: 0 nm

INPUT: Field request: association response of the second antibody | item: IgG1-338-FEAR (antibody, V domains shown) VH: EVQVVESGGGLVQPGGSLRLSCAASGFTFSRFWMSWVRQAPGKGLEWVANIKQDGGEKYYVDSVKGRFTISRDNAKNSLYLQMNSLRGEDTAVYYCARDDNWNGHFDYWGQGTLVTVSS VL: DIQMTQSPSTLSASVGDRVTITCRASQSISSWLAWYQQKPGKAPNLLIYKASSLESGVPSRFSGSGSGTEFTLTISSLQPDDFATYYCQQYYGSYITFGQGTRLEIKR
OUTPUT: 0 nm
